- protocol.notes: Solubility of the cannabinol starting material in various solvents
- test.context: water (1% methanol), 40 °C
readout.type: solubility

Incoming: Return reported solubility; argument: CCCCCc1cc(O)c2c(c1)OC(C)(C)c1ccc(C)cc1-2 [cannabinol]
Outgoing: < 20 mg/mL

* * *

- protocol.notes: Solubility of the cannabinol starting material in various solvents
- test.context: water (denatured with 1% MeOH)
readout.type: solubility

Incoming: # input compound: "CCCCCc1cc(O)c2c(c1)OC(C)(C)c1ccc(C)cc1-2" ; wanted: its solubility
Outgoing: < 20 mg/mL

Where do the numbers come from? From patent US20230381134A1.
